Catalogue of Emax values
tested-target: PKR(R510Q) (Homo sapiens, UniProt P30613, R510Q)
Sequence (P30613 whole entry R510Q): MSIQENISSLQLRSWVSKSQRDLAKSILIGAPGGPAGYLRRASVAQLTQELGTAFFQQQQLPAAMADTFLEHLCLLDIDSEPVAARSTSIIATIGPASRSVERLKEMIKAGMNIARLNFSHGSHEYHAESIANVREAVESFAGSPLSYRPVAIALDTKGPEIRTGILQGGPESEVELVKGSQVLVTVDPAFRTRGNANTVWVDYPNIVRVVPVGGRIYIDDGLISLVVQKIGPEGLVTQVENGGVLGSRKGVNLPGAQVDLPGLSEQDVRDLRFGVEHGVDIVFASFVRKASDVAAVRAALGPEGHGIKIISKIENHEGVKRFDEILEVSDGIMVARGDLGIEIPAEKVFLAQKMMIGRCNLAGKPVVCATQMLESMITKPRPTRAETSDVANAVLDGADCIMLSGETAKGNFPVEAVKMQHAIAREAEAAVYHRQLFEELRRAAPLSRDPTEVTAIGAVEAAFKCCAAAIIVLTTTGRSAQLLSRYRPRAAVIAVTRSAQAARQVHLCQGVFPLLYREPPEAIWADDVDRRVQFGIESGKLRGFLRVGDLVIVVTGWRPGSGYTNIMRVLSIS
experiment-description: Luminescence Assay Protocol (Kinase Glo Plus), PKR(R510Q/without FBP)
Type: biochemical
test-conditions: PKRR510Q, without FBP, highest % fold increase at any concentration; read-out: E - AC50 LUM KGP woFBP MAX % FOLD mean

# compound, Emax
rows = [
    ("COCCC(=O)N1CC2=C(C1)CN(S(=O)(=O)c1ccc3c(c1)OCCO3)C2", "75 to 250%"),
    ("O=C(C(CO)c1ccccn1)N1CC2=C(C1)CN(S(=O)(=O)c1ccc(OC(F)F)cc1)C2 (single isomer, unassigned)", "250 to 500%"),
    ("CC(C)(CO)C(=O)N1CC2=C(C1)CN(S(=O)(=O)c1ccc3ncsc3c1)C2", "250 to 500%"),
]

Task item: For the compound O=C([C@@H](CO)c1ccccc1)N1CC2=C(C1)CN(S(=O)(=O)c1cnc3c(c1)OCCO3)C2 (single isomer, unassigned) , give its measured Emax value.
Reply: 250 to 500%

Task item: Dear colleague, please send me the reported Emax for O=C(C(CO)c1ccccc1)N1CC2=C(C1)CN(S(=O)(=O)c1ccc(OC(F)F)cc1)C2 (stereo not shown) when you can.
Reply: 250 to 500%

Task item: Let me know recorded Emax for CC1(C)CNc2cc(S(=O)(=O)N3CC4=C(CN(C(=O)[C@H](CO)c5ccccc5)C4)C3)ccc2O1 , thanks.
Reply: 75 to 250%

Task item: Query Emax for O=C(C1CCCOC1)N1CC2=C(C1)CN(S(=O)(=O)c1cnc3c(c1)OCCO3)C2 (single isomer, unassigned)
Reply: 250 to 500%

----------
# AC50 annotations
tested-target: PKR(R510Q) (Homo sapiens, UniProt P30613, R510Q)
experiment-description: Luminescence Assay Protocol (Kinase Glo Plus), PKR(R510Q/without FBP)
Format: biochemical
test-conditions: PKRR510Q, without FBP, gmean; read-out: D - AC50 LUM KGP woFBP AC50 μM gmean

Illustrative cases are given below, each with its answer.
# compound, AC50
measured = [
    ("O=C(C1CCCOC1)N1CC2=C(C1)CN(S(=O)(=O)c1cnc3c(c1)OCCO3)C2 (single isomer, unassigned) [Example 6]", "> 40 µM"),
    ("O=C([C@H](CO)c1ccccc1)N1CC2=C(C1)CN(S(=O)(=O)c1ccc(OC(F)F)cc1)C2", "≤ 0.1 µM"),
    ("O=C([C@H]1CCOC1)N1CC2=C(C1)CN(S(=O)(=O)c1ccc(OC(F)F)cc1)C2", "1 to 40 µM"),
]

Task item: Quick one: give measured AC50 for O=C(CCO)N1CC2=C(C1)CN(S(=O)(=O)c1ccc(OC(F)F)cc1)C2
Reply: 1 to 40 µM

----------
tested-target: PKR(wt) (Homo sapiens)
Sequence (P30613 whole entry): as the sequence (P30613 whole entry R510Q) above, with Q510R counted along it
experiment-description: Luminescence Assay Protocol (Kinase Glo Plus), PKR(Wt/without FBP)
Assay type: biochemical
test-conditions: without FBP, gmean, read-out: G - AC50 LUM KGP woFBP AC50 μM gmean
Entries annotated with measured AC50

# molecule, AC50
data = [
    ("O=C([C@H]1CCOC1)N1CC2=C(C1)CN(S(=O)(=O)c1ccc(OC(F)F)cc1)C2", "0.1 to 1 µM"),
    ("CC(C)(CO)C(=O)N1CC2=C(C1)CN(S(=O)(=O)c1ccc3c(c1)NCCO3)C2", "0.1 to 1 µM"),
    ("O=C([C@H](CO)c1ccccc1)N1CC2=C(C1)CN(S(=O)(=O)c1ccc3ncsc3c1)C2", "≤ 0.1 µM"),
]

Task item: Provide AC50 value for the following molecule: O=C([C@@H]1CCOC1)N1CC2=C(C1)CN(S(=O)(=O)c1ccc3ncsc3c1)C2
Reply: 0.1 to 1 µM

Task item: Quote AC50 reported for C[C@@H](O)CC(=O)N1CC2=C(C1)CN(S(=O)(=O)c1ccc3occc3c1)C2 please.
Reply: 0.1 to 1 µM

Task item: Give the value of AC50 reported for the following: O=C(C(CO)c1ccccn1)N1CC2=C(C1)CN(S(=O)(=O)c1cnc3c(c1)OCCO3)C2 (single isomer, unassigned) [Example 3]
Reply: ≤ 0.1 µM

Task item: Annotate the molecule O=C([C@H](CO)c1ccccc1)N1CC2=C(C1)CN(S(=O)(=O)c1cccnc1)C2 with its measured AC50.
Reply: 0.1 to 1 µM

Task item: Dear colleague, please send me the reported AC50 for CC(C)(CO)C(=O)N1CC2=C(C1)CN(S(=O)(=O)c1ccc3occc3c1)C2 when you can.
Reply: ≤ 0.1 µM

Task item: Using known records, supply AC50 for O=C(C1CCCOC1)N1CC2=C(C1)CN(S(=O)(=O)c1cnc3c(c1)OCCO3)C2 (single isomer, unassigned) [Example 5]
Reply: 0.1 to 1 µM

Task item: Note AC50 for the molecule shown: O=C(C1CCOC1)N1CC2=C(C1)CN(S(=O)(=O)c1ccc3c(c1)NCCO3)C2 (stereo not shown)
Reply: 0.1 to 1 µM

Task item: Answer with the recorded AC50 for the molecule listed here: CC(CO)(CO)C(=O)N1CC2=C(C1)CN(S(=O)(=O)c1ccc3occc3c1)C2
Reply: ≤ 0.1 µM

Task item: Give the value of AC50 reported for the following: COCCC(=O)N1CC2=C(C1)CN(S(=O)(=O)c1ccc3c(c1)N(C)CCO3)C2
Reply: 0.1 to 1 µM

Task item: Supply reported AC50 belonging to this molecule: C[C@H](O)CC(=O)N1CC2=C(C1)CN(S(=O)(=O)c1ccc3occc3c1)C2
Reply: 0.1 to 1 µM

Task item: Return AC50 for the following molecule: O=C(CCO)N1CC2=C(C1)CN(S(=O)(=O)c1ccc(OC(F)F)cc1)C2
Reply: 1 to 40 µM

Task item: # return recorded AC50 for entry CC(C)(O)[C@@H](C(=O)N1CC2=C(C1)CN(S(=O)(=O)c1ccc(OC(F)F)cc1)C2)c1ccccc1
Reply: 0.1 to 1 µM

Task item: Supply AC50 value. Item: O=C(C1COc2ccccc21)N1CC2=C(C1)CN(S(=O)(=O)c1ccc3ncsc3c1)C2 (stereo not shown)
Reply: 0.1 to 1 µM

----------
Readings of AC50 for the listed compounds
tested-target: PKR(G332S) (Homo sapiens, UniProt P30613, G332S)
Sequence (P30613 whole entry G332S): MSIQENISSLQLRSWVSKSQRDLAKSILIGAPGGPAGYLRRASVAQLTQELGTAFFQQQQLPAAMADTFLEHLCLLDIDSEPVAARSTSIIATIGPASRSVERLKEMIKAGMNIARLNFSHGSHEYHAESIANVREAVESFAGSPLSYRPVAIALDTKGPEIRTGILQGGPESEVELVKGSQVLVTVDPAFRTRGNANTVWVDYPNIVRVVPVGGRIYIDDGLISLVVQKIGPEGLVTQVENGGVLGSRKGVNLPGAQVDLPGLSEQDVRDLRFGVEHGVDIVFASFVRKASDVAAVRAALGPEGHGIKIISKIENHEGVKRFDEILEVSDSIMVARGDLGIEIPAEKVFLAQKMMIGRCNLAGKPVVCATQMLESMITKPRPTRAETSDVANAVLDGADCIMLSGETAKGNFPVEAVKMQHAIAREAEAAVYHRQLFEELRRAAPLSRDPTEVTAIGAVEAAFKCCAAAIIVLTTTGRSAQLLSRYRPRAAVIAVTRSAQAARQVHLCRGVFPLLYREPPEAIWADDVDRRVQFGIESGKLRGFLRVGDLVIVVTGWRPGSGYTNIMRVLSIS
experiment-description: Luminescence Assay Protocol (Kinase Glo Plus), PKR(G332S/with FBP)
Assay type: biochemical
test-conditions: PKRG332S, with FBP, gmean; read-out: A - AC50 LUM KGP FBP AC50 μM gmean

Use these answered entries as a reference point.
# compound, AC50
measured = [
    ("CN1CCOc2ccc(S(=O)(=O)N3CC4=C(CN(C(=O)C5CCOC5)C4)C3)cc21 (centres unmarked)", "> 40 µM"),
    ("CC(C)(CO)C(=O)N1CC2=C(C1)CN(S(=O)(=O)c1ccc(OC(F)F)cc1)C2", "≤ 0.1 µM"),
    ("O=C([C@@H]1CCOC1)N1CC2=C(C1)CN(S(=O)(=O)c1ccc3ncsc3c1)C2", "0.1 to 1 µM"),
    ("O=C(C1CCOC1)N1CC2=C(C1)CN(S(=O)(=O)c1ccc3c(c1)NCCO3)C2 (centres unmarked)", "≤ 0.1 µM"),
]

Task item: Complete the entry with AC50 for O=C(C1CCCOC1)N1CC2=C(C1)CN(S(=O)(=O)c1ccc3c(c1)NCCO3)C2 (single isomer, unassigned) [Example 33]
Reply: > 40 µM

Task item: Supply AC50 value. Item: O=C(C(CO)c1ccccn1)N1CC2=C(C1)CN(S(=O)(=O)c1ccc(OC(F)F)cc1)C2 (single isomer, unassigned) [Example 42]
Reply: ≤ 0.1 µM

Task item: Give AC50 for O=C([C@H](CO)c1ccccc1)N1CC2=C(C1)CN(S(=O)(=O)c1cccnc1)C2
Reply: 0.1 to 1 µM

Task item: Find the measured AC50 of COCCC(=O)N1CC2=C(C1)CN(S(=O)(=O)c1ccc3c(c1)N(C)CCO3)C2 and report it.
Reply: > 40 µM

----------
tested-target: PKR(R510Q) (Homo sapiens, UniProt P30613, R510Q)
experiment-description: Luminescence Assay Protocol (Kinase Glo Plus), PKR(R510Q/without FBP)
Format: biochemical
test-conditions: PKRR510Q, without FBP, highest % fold increase at any concentration

# compound, E - AC50 LUM KGP woFBP MAX % FOLD mean
measured = [
    ("O=C(C1CCCOC1)N1CC2=C(C1)CN(S(=O)(=O)c1ccccn1)C2 (single isomer, unassigned) [Example 44]", "++ (>75% and ≤250% (++))"),
    ("O=C(C(CO)c1ccccn1)N1CC2=C(C1)CN(S(=O)(=O)c1cnc3c(c1)OCCO3)C2 (single isomer, unassigned) [Example 4]", "++ (>75% and ≤250% (++))"),
]

----------
tested-target: UniProt:P30613
experiment-description: Luminescence Assay Protocol (Kinase Glo Plus), PKR(Wt/without FBP)
Format: biochemical
test-conditions: without FBP, gmean, read-out: G - AC50 LUM KGP woFBP AC50 μM gmean
# AC50 values compiled below

# compound, tested-target, metric, endpoint-result
rows = [
    ("CN1CCOc2ccc(S(=O)(=O)N3CC4=C(CN(C(=O)C5CCOC5)C4)C3)cc21 (stereo not drawn)", "UniProt:P30613", "AC50", "0.1 to 1 µM"),
]

Task item: Give a short answer stating reported AC50 for CC(C)(CO)C(=O)N1CC2=C(C1)CN(S(=O)(=O)c1ccc(OC(F)F)cc1)C2 .
Reply: 0.1 to 1 µM

Task item: Entry O=C(C(CO)c1ccccc1)N1CC2=C(C1)CN(S(=O)(=O)c1ccc3ncsc3c1)C2 (stereo not drawn) needs its AC50 filled in; supply it.
Reply: ≤ 0.1 µM
